Values were extracted from patent US9040527B2.

In this section we review reported IC50 values for a set of molecules.
# studyTarget: PLK1 (Homo sapiens)
# Sequence (P53350 whole entry): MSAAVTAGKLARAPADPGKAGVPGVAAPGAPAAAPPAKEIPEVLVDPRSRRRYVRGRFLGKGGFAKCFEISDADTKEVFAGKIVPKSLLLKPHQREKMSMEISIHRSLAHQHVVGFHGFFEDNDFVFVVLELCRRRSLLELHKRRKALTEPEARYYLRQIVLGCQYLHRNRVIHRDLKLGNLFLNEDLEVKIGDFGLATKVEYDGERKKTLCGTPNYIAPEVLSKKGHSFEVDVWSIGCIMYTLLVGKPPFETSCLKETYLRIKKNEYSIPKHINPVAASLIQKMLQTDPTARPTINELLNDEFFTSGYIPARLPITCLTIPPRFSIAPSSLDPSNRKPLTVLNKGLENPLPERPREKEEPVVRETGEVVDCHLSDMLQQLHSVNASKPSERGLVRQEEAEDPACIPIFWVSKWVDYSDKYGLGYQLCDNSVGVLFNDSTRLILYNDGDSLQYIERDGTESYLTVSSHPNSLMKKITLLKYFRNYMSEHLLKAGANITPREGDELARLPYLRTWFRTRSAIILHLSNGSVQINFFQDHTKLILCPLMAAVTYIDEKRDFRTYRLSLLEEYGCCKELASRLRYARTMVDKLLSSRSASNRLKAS
# testSummary: In vitro PLK1 ELISA assay (biochemical)
# Design: purchased Cell Signalling 7728
# conditionsUsed: ELISA, CHK2-derived peptide substrate; read-out: PLK1 IC50 (μM) biochemical assay

Past entries and their recorded results:
{"givenSmiles": "CN1CCN(c2cc(Nc3ncc(F)c(Nc4ccc5c(n4)NC(=O)CO5)n3)cc(C3CC3)c2)CC1", "studyTarget": "PLK1 (Homo sapiens)", "IC50": "< 0.5 µM"}
{"givenSmiles": "CCCN1C(=O)COc2ccc(Nc3nc(Nc4ccc(N5CCN(C)CC5)c(C)c4)ncc3C)nc21", "studyTarget": "PLK1 (Homo sapiens)", "IC50": "< 0.5 µM"}
{"givenSmiles": "Cc1cc(Nc2ncc(C)c(Nc3ccc4c(n3)N(Cc3ccccc3)C(=O)CO4)n2)ccc1N1CCN(C)CC1", "studyTarget": "PLK1 (Homo sapiens)", "IC50": "≥ 10 µM"}

# evaluate next
What the record says about CCCN1C(=O)COc2ccc(Nc3nc(Nc4ccc(N5CCNCC5)c(C(F)(F)F)c4)ncc3F)nc21 : IC50 is ≥ 10 µM

====

# studyTarget: UniProt P53350
# testSummary: In vitro PLK1 ELISA assay (biochemical)
# Set-up: purchased Cell Signalling 7728
# conditionsUsed: ELISA, CHK2-derived peptide substrate; read-out: PLK1 IC50 (μM) biochemical assay
recordedEndpoint: IC50

Past entries and their recorded results:
{"compound": "CCN1C(=O)COc2ccc(Nc3nc(Nc4ccc(N5CCN(C)CC5)cc4)ncc3C)cc21 [compound 189]", "IC50": "0.5 to 5 µM"}
{"compound": "CCCN1CCOc2ccc(Nc3nc(Nc4ccc(N5CC6CC5CN6S(C)(=O)=O)c(C)c4)ncc3C)nc21 (stereo not drawn) [compound 33]", "IC50": "< 0.5 µM"}
{"compound": "CN1CCN(c2cccc(Nc3ncc(F)c(Nc4ccc5c(n4)NC(=O)C(C)(C)O5)n3)c2)CC1 [compound 161]", "IC50": "< 0.5 µM"}
{"compound": "CCCN1CCOc2ccc(Nc3nc(Nc4ccc(N5CC6CC5CN6C(C)=O)c(C)c4)ncc3F)nc21 (stereo not drawn) [compound 37]", "IC50": "0.5 to 5 µM"}
{"compound": "CN1CCN(c2cccc(Nc3ncc(F)c(N(CC4CCCCC4)c4ccc5c(n4)NCCO5)n3)c2)CC1 [compound 7]", "IC50": "≥ 10 µM"}
{"compound": "COc1ccc(CN2C(=O)COc3ccc(Nc4nc(Nc5ccc(N6CCN(C)CC6)c(C)c5)ncc4F)nc32)cc1 [compound 124]", "IC50": "≥ 10 µM"}

What the record says about CN1CCN(c2cccc(Nc3ncc(F)c(N(c4ccc5c(n4)NCCO5)C4CCCCC4)n3)c2)CC1 [compound 9] : IC50 is ≥ 10 µM

What the record says about CN1CCN(c2cccc(Nc3ncc(F)c(Nc4ccc5c(n4)N(CC4CC4)C(=O)CO5)n3)c2)CC1 [compound 108] : IC50 is < 0.5 µM

What the record says about CN1CCN(c2cccc(Nc3ncc(C(=O)O)c(Nc4ccc5c(n4)NCCO5)n3)c2)CC1 [compound 12] : IC50 is ≥ 10 µM

What the record says about Cc1cnc(Nc2cccc(N3CCN(C)CC3)c2)nc1Nc1ccc2c(n1)N(CC1CC1)C(=O)CO2 [compound 129] : IC50 is < 0.5 µM

What the record says about CCCN1C(=O)COc2ccc(Nc3nc(Nc4ccc(N5CC6CC5CN6S(C)(=O)=O)c(C)c4)ncc3C)nc21 (stereo not drawn) [compound 32] : IC50 is 0.5 to 5 µM
